Here's what we have: Ki numbers for human M3 receptor (Homo sapiens (Human)).

# annotated cases, reported Ki shown
| MOLECULE | ASSAY TARGET | Ki |
| --- | --- | --- |
| C[C@@H]1CN(c2ncc(C(F)(F)F)cn2)CCN1C(=O)NCCC1CCN(Cc2ccccc2)CC1 [3-9] | human M3 receptor (Homo sapiens (Human)) | 0.1 to 1 µM |
| C[C@@H]1CN(c2ncc(C(F)(F)F)c(N)n2)CCN1C(=O)NCCC1CCN(Cc2ccccc2)CC1 [21-17] | human M3 receptor (Homo sapiens (Human)) | 0.01 to 0.1 µM |
| C[C@@H]1CN(c2cc(F)c(OC(F)(F)F)c(F)c2)CCN1C(=O)NCCC1CCN(Cc2ccccc2)CC1 [4-60] | human M3 receptor (Homo sapiens (Human)) | 0.1 to 1 µM |

input: Quick check: Ki of C[C@@H]1CN(c2ncc(C(F)(F)F)cc2F)CCN1C(=O)NCCC1CCN(Cc2ccccc2)CC1 [3-10] ?
output: 0.1 to 1 µM

input: Looking for the measured Ki of C[C@@H]1CN(c2ncc(C(F)(F)F)cn2)CCN1C(=O)NCCC1CCN(Cc2ccccc2)CC1 [21-14] , can you help?
output: 0.1 to 1 µM

input: Requested field: Ki. Item: O=C(NCCC1CCN(Cc2ccccc2)CC1)C1CCN(c2cccc(OC(F)(F)F)c2)CC1 [10-19]
output: > 1 µM

input: Suppose we examine the molecule C[C@@H]1CN(c2cc(F)cc(C#N)c2)CCN1C(=O)NCCC1CCN(Cc2ccccc2)CC1 [3-11] ; what Ki value has been reported?
output: > 1 µM

Values from patent US11033539B2
